Test system: HMLE_sh_eGFP viability, CellTiter-Glo luminescence, 72 h
Assay: viability loss of control HMLE line – cell-based, dry powder, set 2, counter-screen for breast cancer stem cell project, dose response (AID 504325)
Records with an inconclusive call do not appear.
assay-readout: AC50

Check out these entries, answers already filled in.
Ask: Recorded AC50 for `CC(C)c1ccc(/C=C/C(=O)Nc2ccccc2)cc1` , please?
Reply: 3.28 µM

Ask: Also, `Cn1cncc1/C=N/NC(=O)COc1ccc(Cl)cc1Cl` please.
Reply: 18.9 µM

Ask: Quick one: `CC(C)c1ccc(/C=C/C(=O)NC2=NCCS2)cc1`
Reply: 8.92 µM

Further cases:
Ask: Suppose we examine the molecule `Cc1csc(NC(=O)c2ccc(COc3ccccc3)o2)n1` ; what AC50 value has been reported?
Reply: 13.3 µM

Ask: One more molecule: `Cc1ccc(/C=N/NC(=O)COc2ccc(Cl)cc2Cl)[nH]1`
Reply: 16.9 µM

Ask: Please do the same for CC(C)(C)c1ccc2c(c1)OC(C(=O)N/N=C/c1ccc[nH]1)CO2 (stereo not drawn) as well.
Reply: 15 µM

Ask: Quick one: `O=C(COc1c(Cl)cc(Cl)cc1Cl)N/N=C/c1ccc[nH]1`
Reply: 27.6 µM

Ask: Another molecule to check: `Cc1csc(NC(=O)/C=C/c2ccc(C(C)C)cc2)n1`
Reply: 2.83 µM
